Where these numbers come from: ChEMBL document CHEMBL5724562

# Test system: B cell
# assay.info: Cytotoxicity screening of chemical probes in isolated B cell assay. Data is normalized to DMSO control, the cell viability average of replicates are reported. Reduction of ATP level more than 20% indicate compromised cell health status.
# recorded.conditions: human, 1 µM
Hi there, I'd appreciate the recorded Cell Viability for every entry that follows.
Record the value in %, omitting the unit from your answer.

According to the records, this molecule CCOCCn1cc(C(=O)Nc2ccc(-n3nc(-c4cccnc4)cc3C(F)(F)F)cn2)ccc1=O displays Cell Viability of 94.8333

According to the records, this molecule O=C(O)CNC(=O)c1c(O)c2ccccc2n(Cc2ccccc2)c1=O displays Cell Viability of 96.2966

According to the records, this molecule CC#C[C@@H](CC(=O)O)c1ccc(OCc2cccc(-c3ccc(C(F)(F)F)cc3)c2)cc1 displays Cell Viability of 93.0276

According to the records, this molecule C[C@@H]1CN(c2cc(-c3n[nH]c4ccc(OC5(C)CC5)cc34)ncn2)C[C@H](C)O1 displays Cell Viability of 96.3526

According to the records, this molecule C=CC(=O)N1CCC[C@@H](n2nc(-c3ccc(Oc4ccccc4)cc3)c3c(N)ncnc32)C1 displays Cell Viability of 86.9807

According to the records, this molecule Clc1cc2c(NC3CCCC3)nnc(-c3ccncc3)c2cc1Cl displays Cell Viability of 99.0979

According to the records, this molecule COc1cc(Nc2nccc(-c3cnn4nc(OC)ccc34)n2)cc(C(F)(F)F)c1 displays Cell Viability of 93.0077

According to the records, this molecule Cc1cc2c(cc1N1C(=O)c3cccc4c(CCCO)ccc(c34)C1=O)n(C)c(=O)n2C displays Cell Viability of 92.6096

According to the records, this molecule CCCc1cc(C)[nH]c(=O)c1CNC(=O)c1cc(-c2ccnc(N3CCN(C)CC3)c2)cc2c1cnn2C(C)C displays Cell Viability of 92.8371

According to the records, this molecule CN1CCN(C(=O)C(C)(C)c2ccc(C(=O)Nc3cn4cc(-c5ccncc5)ccc4n3)cc2)CC1 displays Cell Viability of 73.6988

According to the records, this molecule O=C(NCC(=O)N1CCCC1)Nc1ccc2cnccc2c1 displays Cell Viability of 100.263

According to the records, this molecule CCOc1nc2cccc(C(=O)O)c2n1Cc1ccc(-c2ccccc2-c2nnn[nH]2)cc1 displays Cell Viability of 101.389

According to the records, this molecule CC(=O)Nc1cccc(-n2c(=O)n(C3CC3)c(=O)c3c(Nc4ccc(I)cc4F)n(C)c(=O)c(C)c32)c1 displays Cell Viability of 85.5796

According to the records, this molecule COc1cc(Nc2ccnc3ccc(Br)cc23)cc(OC)c1OC displays Cell Viability of 95.869

According to the records, this molecule Clc1cccc(-c2nnnn2Cc2cccnc2)c1Cl displays Cell Viability of 97.1983

According to the records, this molecule Nc1nc(NCc2ccccc2)nc(-c2ccccc2CO)n1 displays Cell Viability of 100.729

According to the records, this molecule COc1cc(-c2cn([C@H]3CCc4c(F)cccc4N(CC(F)(F)F)C3=O)nn2)ccc1-n1cnc(C)c1 displays Cell Viability of 98.1038

According to the records, this molecule CCOC(=O)Nc1cc(-c2ccc(C)c(NS(C)(=O)=O)c2)nn2c(C)nnc12 displays Cell Viability of 84.5677

According to the records, this molecule COc1cc2c(cc1NS(=O)(=O)c1ccc(Br)cc1C)n(C)c(=O)n2C displays Cell Viability of 96.0295

* * *

# System: B cell
# assay.info: Cytotoxicity screening of chemical probes in isolated B cell assay. Data is normalized to DMSO control, the cell viability average of replicates are reported. Reduction of ATP level more than 20% indicate compromised cell health status.
# recorded.conditions: human, 1 µM
Non-standard residues stand in square brackets, D forms with d. Residues, ends and D or L forms follow the SMILES beside them. *: point of attachment. dPhe(4-NHCONH2) = NC(=O)Nc1ccc(C[C@@H](N)C(=O)O)cc1; Dihydroorotyl(S) = O=C1C[C@@H](C(=O)*)NC(=O)N1; dPhe(4-Cl) = N[C@H](Cc1ccc(Cl)cc1)C(=O)O; Phe(4-NH2) = Nc1ccc(C[C@H](N)C(=O)O)cc1; d2Nal = N[C@H](Cc1ccc2ccccc2c1)C(=O)O; Lys(iPr) = CC(C)NCCCC[C@H](N)C(=O)O; d3Pal = N[C@H](Cc1cccnc1)C(=O)O
quantity: Cell Viability (%)
Record the value in %, omitting the unit from your answer.

Let me check: CC(C)Cc1ccc([C@@H](C)C(=O)NS(C)(=O)=O)cc1 , system B cell, measured Cell Viability is 94.4279

Let me check: Cc1[nH]cnc1CN1CCc2c(c3ccccc3n2C)C1=O , system B cell, measured Cell Viability is 98.6661

Let me check: Cl.O=C(O)c1cc(-c2ccc(C3CCNCC3)cc2)c2ccc(-c3ccc(C(F)(F)F)cc3)cc2c1 , system B cell, measured Cell Viability is 98.0873

Let me check: O=C1c2ccc(Nc3ccc(F)cc3F)cc2CCc2ccc(OC[C@H](O)CO)cc21 [Skepinone-L] , system B cell, measured Cell Viability is 96.8594

Let me check: Cc1c(Nc2ccc(S(=O)(=O)N3CCN(C)CC3)cc2F)nc2ccc(-c3cnn(C4CC4)c3)cn2c1=O , system B cell, measured Cell Viability is 96.0793

Let me check: CCCCN(CCCC)C(=O)CN1C[C@@H](c2cc(OC)c3c(c2)OCO3)[C@H](C(=O)O)[C@H]1CC(C)(C)CCC.Cl , system B cell, measured Cell Viability is 89.8179

Let me check: CCN(CC)S(=O)(=O)Nc1cccc(-c2ccc3c(NC(=O)C4CC4)n[nH]c3c2)c1 , system B cell, measured Cell Viability is 95.3727

Let me check: CCCS(=O)(=O)c1nc(NC2CC2)cc(-c2ccc3c(ccn3C3CC(C)(C)NC(C)(C)C3)c2)n1 , system B cell, measured Cell Viability is 24.107

Let me check: Cl.O=C([C@@H](Cc1cccc(C(F)(F)F)c1)NS(=O)(=O)c1cc(F)c2c(c1)CCNC2)N1CCCC1 , system B cell, measured Cell Viability is 98.8503

Let me check: CC(=O)C1=C(C)N(c2cccc(C(F)(F)F)c2)C(=O)N[C@@H]1c1ccc(C#N)nc1 , system B cell, measured Cell Viability is 97.287

Let me check: c1cc(OCCCN2CCCCC2)ccc1CN1CCCCC1 , system B cell, measured Cell Viability is 101.482

Let me check: NS(=O)(=O)c1cc(NC(=O)Cc2ccccc2)ccc1Oc1cccc(Cl)c1 , system B cell, measured Cell Viability is 95.6935

Let me check: Cc1ccc(Cn2nc(C(=O)N[C@@H]3C(C)(C)[C@@H]4CC[C@@]3(C)C4)cc2-c2ccc(Cl)c(C)c2)cc1 , system B cell, measured Cell Viability is 95.8945

Let me check: CC(=O)N[C@H](Cc1ccc2ccccc2c1)C(=O)N[C@H](Cc1ccc(Cl)cc1)C(=O)N[C@H](Cc1cccnc1)C(=O)N[C@@H](CO)C(=O)N[C@@H](Cc1ccc(NC(=O)[C@@H]2CC(=O)NC(=O)N2)cc1)C(=O)N[C@H](Cc1ccc(NC(N)=O)cc1)C(=O)N[C@@H](CC(C)C)C(=O)N[C@@H](CCCCNC(C)C)C(=O)N1CCC[C@H]1C(=O)N[C@H](C)C(N)=O [DEGARELIX] (Ac-[d2Nal][dPhe(4-Cl)][d3Pal]S[Phe(4-NH2)](Dihydroorotyl(S))[dPhe(4-NHCONH2)]L[Lys(iPr)]P[dA]-NH2) , system B cell, measured Cell Viability is 102.434

* * *

# Tested on: B cell
# assay.info: Cytotoxicity screening of chemical probes in isolated B cell assay. Data is normalized to DMSO control, the cell viability average of replicates are reported. Reduction of ATP level more than 20% indicate compromised cell health status.
# recorded.conditions: human, 1 µM
Hi there, I'd appreciate the recorded Cell Viability for every entry that follows.
Record the value in %, omitting the unit from your answer.

According to the records, this compound Cn1cnc2c(F)c(Nc3ccc(Br)cc3Cl)c(C(=O)NOCCO)cc21 [SELUMETINIB] displays Cell Viability of 92.6054

According to the records, this compound C[C@]12N[C@H](Cc3ccccc31)c1ccccc12 [DIZOCILPINE] displays Cell Viability of 102.296

According to the records, this compound COc1ccccc1C(=O)Nc1cc2c(cc1N1CCNCC1C)n(C)c(=O)n2C (stereo not drawn) displays Cell Viability of 98.4804

According to the records, this compound CCN(CCO)CCCOc1ccc2c(Nc3cc(CC(=O)Nc4cccc(F)c4)[nH]n3)ncnc2c1 [DEFOSBARASERTIB] displays Cell Viability of 100.387

According to the records, this compound CN1C[C@H](Nc2cnn(C)c(=O)c2Br)C[C@H](c2ccccc2)C1 displays Cell Viability of 94.5817

According to the records, this compound CC[C@H]1OC(=O)[C@H](C)[C@@H](O[C@H]2C[C@@](C)(OC)[C@@H](O)[C@H](C)O2)[C@H](C)[C@@H](O[C@@H]2O[C@H](C)C[C@H](N(C)C)[C@H]2O)[C@@]2(C)CC(C)=C(O2)[C@H](C)[C@@H](O)[C@]1(C)O displays Cell Viability of 98.1033

According to the records, this compound C[C@H]1CC(=O)Nc2cc(C(=O)NCCC3CC3)ccc2N1C(=O)N1CC2CC2C1 (stereo partly drawn) displays Cell Viability of 100.735

According to the records, this compound O=C(O)c1n[nH]c2c1C[C@H]1C[C@@H]21 displays Cell Viability of 98.0706
